- targetOfAssay: 5-hydroxytryptamine receptor 4 (Cavia porcellus, UniProt O70528)
- Sequence (O70528 whole entry): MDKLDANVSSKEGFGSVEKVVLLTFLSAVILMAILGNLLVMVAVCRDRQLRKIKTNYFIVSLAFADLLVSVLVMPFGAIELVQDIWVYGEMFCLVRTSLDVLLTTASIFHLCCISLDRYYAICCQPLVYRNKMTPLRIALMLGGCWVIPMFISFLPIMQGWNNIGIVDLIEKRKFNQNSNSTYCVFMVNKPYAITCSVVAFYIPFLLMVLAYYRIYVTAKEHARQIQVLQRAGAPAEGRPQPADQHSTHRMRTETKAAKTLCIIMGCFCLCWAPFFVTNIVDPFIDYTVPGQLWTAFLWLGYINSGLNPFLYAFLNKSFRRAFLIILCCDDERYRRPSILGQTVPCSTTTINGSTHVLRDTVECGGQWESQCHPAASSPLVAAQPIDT
pKi: −log10 of the molar value.
assayMetric: pKi

[a] CCCCN1CCC(CNC(=O)c2cc(OC)c3ccccc3n2)CC1
[b] CCCCN1CCC(COC(=O)c2cc(Cl)nc3ccccc23)CC1
[c] CCCCN1CCC(CNC(=O)c2ccc3cccc(O)c3n2)CC1
[d] COc1cc(C(=O)OCCN2CCC(CO)CC2)c2ccccc2n1
Put these in order: smallest pKi first, largest last. List the labels in the requested order.
a, c, d, b

[P] CCCCN1CCC(CNC(=O)c2cc(Cl)c3ccccc3n2)CC1
[Q] CCCCN1CCC(COC(=O)c2ccnc3ccccc23)CC1
When P and Q are compared, which has the higher number for pKi? Bench note: the answer is the label of the chosen record.
Q
